- Test system: Balb/c splenic B cells
- Run description: B cell activation and proliferation assay (Alamar Blue)
- Type: cell-based
- Experimental setup: Mus musculus, read-out: B cell proliferation EC50
pEC50: −log10 of the molar value.
# Lookup of reported pEC50 keyed by entry

- Structure string: "Cc1nn(Cc2nc3nccc(C)c3c(=O)n2-c2ccccc2F)c2ncnc(N)c12"
  pEC50: "> 5.00"
- Structure string: "Cc1cccc2cc(Cn3nc(I)c4c(N)ncnc43)n(C3CCCC3)c(=O)c12"
  pEC50: "> 5.00"
- Structure string: "COc1ccccc1-n1c(Cn2nc(-c3cc(O)cc(F)c3)c3c(N)ncnc32)cc2cccc(C)c2c1=O"
  pEC50: "> 7.00"
- Structure string: "Cc1cccc2cc(Cn3nc(-c4cc(O)cc(F)c4)c4c(N)ncnc43)n(-c3ccccc3C(C)C)c(=O)c12"
  pEC50: "> 7.00"
